Kindly state %Inh for each of the entries shown.
test system: CLK1; details: concentration: 1 μM, replicates: in singlicate; n = 1;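 also: KINOMEscan kinase panel screen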
Reply numerically in %, unit not repeated.

Fill blank: measured %Inh of the compound `CC(C)(C)n1cnc2c(N)ncnc21` is ____.
14

Fill blank: measured %Inh of the compound `O=C(NCCCN1CCOCC1)c1cccc(Nc2nccc(Nc3ccc(Oc4ccccc4)cc3)n2)c1` is ____.
22

Fill blank: measured %Inh of the compound `CCc1nc(-c2cccc(C)c2)c(-c2ccnc(NCc3ccccc3)c2)s1` is ____.
0

Fill blank: measured %Inh of the compound Cc1nnc(-c2ccc3ncc(-c4ccc(S(C)=O)cc4)n3c2)o1 (centres unmarked) is ____.
0

Fill blank: measured %Inh of the compound `N#Cc1c(N2CCOCC2)sc(-c2ccn[nH]2)c1-c1ccc(Cl)cc1` is ____.
6

Fill blank: measured %Inh of the compound `NS(=O)(=O)c1cccc(-c2ccc3nccc(-c4cccc(S(N)(=O)=O)c4)c3c2)c1` is ____.
0

Fill blank: measured %Inh of the compound `O=c1cc(N2CCOCC2)nc2n(Cc3cccc(C(F)(F)F)c3)ccn12` is ____.
17

Fill blank: measured %Inh of the compound `O=C(c1ccc(-c2cc(-c3c[nH]nc3-c3ccccn3)ccn2)cc1)N1CCOCC1` is ____.
0

---

system: CLK4; settings: concentration: 1 μM, replicates: in singlicate; n = 1
Lab note: anything with %Inh below 10% is marked 1; values at 10% or higher are marked -1.

Find out if reported %Inh for `Cn1cc(-c2ccc3c(c2)CCN3C(=O)Cc2ccccc2Cl)c2c(N)ncnc21` is less than 10%
1

Find out if reported %Inh for `[2H]C([2H])(c1cccc(C(F)(F)F)c1C)n1ccn2c(=O)nc(N3CCOCC3)cc12` is less than 10%
-1

Find out if reported %Inh for `NS(=O)(=O)CCc1cccc(Nc2nccc(-c3c(-c4cccc(NC(=O)c5c(F)cccc5F)c4)nn4ccccc34)n2)c1` is less than 10%
-1

Find out if reported %Inh for `COc1ccc(COc2cc(-n3cnc4ccccc43)sc2C(N)=O)cc1` is less than 10%
-1

Find out if reported %Inh for `O=c1cc(N2CCOCC2)nc2n(Cc3cccc(Cl)c3Cl)c(C3CC3)nn12` is less than 10%
1

Find out if reported %Inh for `CN(C1=C(c2ccccc2)C(=O)NC1=O)c1ccccc1` is less than 10%
1

Find out if reported %Inh for `NS(=O)(=O)c1cccc(-c2ccc3nccc(-c4cccc(S(N)(=O)=O)c4)c3c2)c1` is less than 10%
1

Find out if reported %Inh for Cc1nnc(-c2ccc3occ(-c4ccc(C(C)O)cc4)c3c2)o1 (centres unmarked) is less than 10%
-1

Find out if reported %Inh for `CN1c2ccc(CNc3ccc(F)cc3)cc2-c2c(cnn2C)S1(=O)=O` is less than 10%
-1

Find out if reported %Inh for `O=c1cc(N2CCOCC2)nc2n(Cc3cccc(F)c3)ccn12` is less than 10%
-1

Find out if reported %Inh for `Cc1cn2c(=O)cc(N3CCOCC3)nc2n1Cc1cccc(Cl)c1Cl` is less than 10%
-1

Find out if reported %Inh for `Cc1ccc(C(=O)NCC(N)=O)cc1-n1c(C)cc(OCc2ccc(F)cc2F)c(Br)c1=O` is less than 10%
-1

Find out if reported %Inh for `COc1ccc(Nc2ncc(C#N)c(Nc3ccccc3C(N)=O)n2)cc1N1CCN(C)CC1.Cl` is less than 10%
-1

Find out if reported %Inh for `O=C(c1ccc(-c2cc(-c3c[nH]nc3-c3ccccn3)ccn2)cc1)N1CCOCC1` is less than 10%
1

Find out if reported %Inh for `Cc1nnc(-c2ccc(C)c(-c3ccc(C(=O)Nc4ccc(NS(C)(=O)=O)cc4)cc3)c2)o1` is less than 10%
1

Find out if reported %Inh for `O=C(Nc1cccc(-c2nn3ncccc3c2-c2ccnc(Nc3cccc(C(F)(F)F)c3)n2)c1)c1c(F)cccc1F` is less than 10%
-1

Find out if reported %Inh for `COC(=O)Nc1nc2cc(Oc3ccc(NC(=O)Nc4cc(F)ccc4F)cc3)ccc2[nH]1.Cl` is less than 10%
-1

Find out if reported %Inh for NCC(NC(=O)c1cc(-c2cn[nH]c2)c(-c2ccnc3[nH]ccc23)s1)c1ccccc1.O=C(O)C(F)(F)F.O=C(O)C(F)(F)F (centres unmarked) is less than 10%
-1

Find out if reported %Inh for COc1ccc(CNC(=O)NC2CCN(c3ccnc(Nc4ccc(OC)cc4)n3)C2)cc1 (centres unmarked) is less than 10%
-1

Find out if reported %Inh for `O=c1cc(N2CCOCC2)nc2n(Cc3cccc(C(F)(F)F)c3)ccn12` is less than 10%
1

Find out if reported %Inh for Cc1nnc(-c2ccc3ncc(-c4ccc(S(C)=O)cc4)n3c2)o1 (centres unmarked) is less than 10%
1

Find out if reported %Inh for `N#Cc1ccc(-c2cc(-c3c[nH]nc3-c3ccccn3)ccn2)cc1` is less than 10%
-1

Find out if reported %Inh for `COc1cc2c(cc1OCCN1CCN(C)CC1)ncc1c3ccc(C#N)cc3[nH]c21` is less than 10%
-1

Find out if reported %Inh for `Cl.Oc1cccc(Nc2ccnc3cc(-c4ccncc4)ccc23)c1` is less than 10%
-1

Find out if reported %Inh for Cc1c(Cn2c(C)nn3c(=O)cc(N4CCOC(C)C4)nc23)cccc1C(F)(F)F (centres unmarked) is less than 10%
-1

Find out if reported %Inh for `O=C(NCCNc1ccnc(Nc2ccc(F)cc2)n1)c1cc2ccccc2s1` is less than 10%
-1

Find out if reported %Inh for `c1ccc(-c2n[nH]cc2-c2ccnc3ccccc23)nc1` is less than 10%
-1

Find out if reported %Inh for COc1ccc(Nc2nccc(N3CCC(NC(=O)Nc4cccc(C(C)=O)c4)C3)n2)cc1 (centres unmarked) is less than 10%
1

Find out if reported %Inh for `CCc1nc(-c2cccc(C)c2)c(-c2ccnc(NCc3ccccc3)c2)s1` is less than 10%
1

Find out if reported %Inh for `C[C@@H](Oc1cc(-n2cnc3ccc(NC(=O)NC(C)(C)C)cc32)sc1C(N)=O)c1ccccc1Cl` is less than 10%
-1

Find out if reported %Inh for `O=C(NCCCN1CCOCC1)c1cccc(Nc2nccc(Nc3ccc(Oc4ccccc4)cc3)n2)c1` is less than 10%
-1

Find out if reported %Inh for `Fc1ccc(-c2ncn(CCCN3CCOCC3)c2-c2ccccn2)cc1` is less than 10%
1

Find out if reported %Inh for `CSc1ccc(-c2cc3ncnc(SCC(=O)O)c3s2)cc1` is less than 10%
1

Find out if reported %Inh for COc1cc(Nc2nccc(N3CCC(NC(=O)c4cccc(NC(C)=O)c4)C3)n2)cc(OC)c1OC (centres unmarked) is less than 10%
-1

Find out if reported %Inh for `O=c1cc(N2CCOCC2)nc2n(Cc3cccc4ccccc34)ccn12` is less than 10%
-1

---

test system: RIOK3; details: concentration: 1 μM, replicates: in singlicate; n = 1
metric-name: %Inh (%)
Reply numerically in %, unit not repeated.

Fill blank: measured %Inh of the compound `Fc1ccc(-c2ncn(CCCN3CCOCC3)c2-c2ccccn2)cc1` is ____.
41

Fill blank: measured %Inh of the compound `O=C1NC(=O)C(N2CCc3ccccc32)=C1c1cccc(Cl)c1` is ____.
30

Fill blank: measured %Inh of the compound `CC(C)(CN)c1nc(-c2ccc(Cl)c(O)c2)c(-c2ccncc2)[nH]1.O=C(O)C(F)(F)F` is ____.
0

Fill blank: measured %Inh of the compound COc1cc(Nc2nccc(N3CCC(NC(=O)c4cccc(NC(C)=O)c4)C3)n2)cc(OC)c1OC (stereo not shown) is ____.
61

Fill blank: measured %Inh of the compound `O=c1cc(N2CCOCC2)nc2n(Cc3cccc(C(F)(F)F)c3)ccn12` is ____.
19

Fill blank: measured %Inh of the compound `O=C1Cc2cc(Nc3nc(NCc4cccc(S(=O)(=O)C(F)(F)F)c4)ncc3C(F)(F)F)ccc2N1` is ____.
0

Fill blank: measured %Inh of the compound COc1ccc(Nc2nccc(N3CCC(NC(=O)Nc4cccc(C(C)=O)c4)C3)n2)cc1 (stereo not shown) is ____.
24

Fill blank: measured %Inh of the compound `N#Cc1c(N2CCOCC2)sc(-c2ccn[nH]2)c1-c1ccc(Cl)cc1` is ____.
0

Fill blank: measured %Inh of the compound `c1ccc(-c2n[nH]cc2-c2ccnc3ccccc23)nc1` is ____.
26

Fill blank: measured %Inh of the compound `O=C(c1ccc(-c2cc(-c3c[nH]nc3-c3ccccn3)ccn2)cc1)N1CCOCC1` is ____.
7

Fill blank: measured %Inh of the compound Cc1nnc(-c2ccc3ncc(-c4ccc(S(C)=O)cc4)n3c2)o1 (stereo not shown) is ____.
0

Fill blank: measured %Inh of the compound `COc1cc2c(cc1OC[C@@H](O)CO)ncc1c3ccc(C#N)cc3[nH]c21` is ____.
76

Fill blank: measured %Inh of the compound `Cl.Oc1cccc(Nc2ccnc3cc(-c4ccncc4)ccc23)c1` is ____.
0

Fill blank: measured %Inh of the compound `O=C(Nc1n[nH]c2cc(-c3cccc(F)c3)ccc12)C1CC1` is ____.
0

Fill blank: measured %Inh of the compound `CN(C(=O)c1ccc(-c2cc(-c3c[nH]nc3-c3ccccn3)ccn2)cc1)C1CCOCC1` is ____.
33

Fill blank: measured %Inh of the compound `O=C(NCCNc1ccnc(Nc2ccc(F)cc2)n1)Nc1ccccc1F` is ____.
0

Fill blank: measured %Inh of the compound COc1ccc(CNC(=O)NC2CCN(c3ccnc(Nc4ccc(OC)cc4)n3)C2)cc1 (stereo not shown) is ____.
18

Fill blank: measured %Inh of the compound `COc1ccc(Nc2ncc(C#N)c(Nc3ccccc3C(N)=O)n2)cc1N1CCN(C)CC1.Cl` is ____.
79

Fill blank: measured %Inh of the compound `CCc1ccnc(/C=C/c2n[nH]c3cc(Sc4ccccc4C(=O)NC)ccc23)c1` is ____.
0

Fill blank: measured %Inh of the compound NCC(NC(=O)c1cc(-c2cn[nH]c2)c(-c2ccnc3[nH]ccc23)s1)c1ccccc1.O=C(O)C(F)(F)F.O=C(O)C(F)(F)F (stereo not shown) is ____.
100

Fill blank: measured %Inh of the compound `CCn1cnc2c(N)ncnc21` is ____.
8

Fill blank: measured %Inh of the compound `Nc1nc(-c2ccc3c(N)n[nH]c3c2)cc(N2CCCC2)n1` is ____.
56

Fill blank: measured %Inh of the compound `Cc1c2ccc(N(C)c3ccnc(Nc4cccc(S(N)(=O)=O)c4)n3)cc2nn1Cc1ccccc1.Cl.Cl` is ____.
0

Fill blank: measured %Inh of the compound `O=c1cc(N2CCOCC2)nc2n(Cc3cccc(Cl)c3Cl)c(C3CC3)nn12` is ____.
37

Fill blank: measured %Inh of the compound `Cc1ccc(C(=O)NCC(N)=O)cc1-n1c(C)cc(OCc2ccc(F)cc2F)c(Br)c1=O` is ____.
0

Fill blank: measured %Inh of the compound `COCCNC(=O)c1ccc(-c2cc(C(=O)NC3CC3)cc(F)c2C)cc1` is ____.
0

Fill blank: measured %Inh of the compound `CCCCCc1nc2c(N)ncnc2n1CCCCC` is ____.
0

Fill blank: measured %Inh of the compound `CCc1nc(-c2cccc(C)c2)c(-c2ccnc(NCc3ccccc3)c2)s1` is ____.
22

Fill blank: measured %Inh of the compound Cc1c(Cn2c(C)nn3c(=O)cc(N4CCOC(C)C4)nc23)cccc1C(F)(F)F (stereo not shown) is ____.
0

Fill blank: measured %Inh of the compound `COc1cc2c(cc1OCCN1CCN(C)CC1)ncc1c3ccc(C#N)cc3[nH]c21` is ____.
85

Fill blank: measured %Inh of the compound `O=c1cc(N2CCOCC2)nc2n(Cc3cccc4ccccc34)ccn12` is ____.
0

Fill blank: measured %Inh of the compound `Fc1ccc(-c2nn3c(OCC(F)(F)F)cccc3c2-c2ccncc2)cc1` is ____.
5

Fill blank: measured %Inh of the compound `CN1c2ccc(CNc3ccc(F)cc3)cc2-c2c(cnn2C)S1(=O)=O` is ____.
14

Fill blank: measured %Inh of the compound `CN1c2ccc(NCc3ccc(F)cc3)cc2-c2c(cnn2C)S1(=O)=O` is ____.
0

Fill blank: measured %Inh of the compound `c1ccc(-c2cc(-c3c[nH]nc3-c3ccccn3)ccn2)cc1` is ____.
25

Fill blank: measured %Inh of the compound `Nc1nccc(-c2c(-c3ccc(F)cc3)ncn2C2CCN(CC(F)(F)F)CC2)n1` is ____.
19

Fill blank: measured %Inh of the compound `NS(=O)(=O)c1cccc(-c2ccc3ncc(N4CCOCC4)nc3c2)c1` is ____.
0
